biological target: human vasopressin V1a receptor subtype (Homo sapiens); construct: host or cells: CHO cells (pZeoSV vector for the Thibonnier line); assay: Vasopressin binding in Chinese Hamster Ovary cell membranes expressing human vasopressin V1a subtype receptors; settings: 100 nM, CHO cell membranes, [3H]Manning ligand, values without parentheses
Sequence (P37288 whole entry): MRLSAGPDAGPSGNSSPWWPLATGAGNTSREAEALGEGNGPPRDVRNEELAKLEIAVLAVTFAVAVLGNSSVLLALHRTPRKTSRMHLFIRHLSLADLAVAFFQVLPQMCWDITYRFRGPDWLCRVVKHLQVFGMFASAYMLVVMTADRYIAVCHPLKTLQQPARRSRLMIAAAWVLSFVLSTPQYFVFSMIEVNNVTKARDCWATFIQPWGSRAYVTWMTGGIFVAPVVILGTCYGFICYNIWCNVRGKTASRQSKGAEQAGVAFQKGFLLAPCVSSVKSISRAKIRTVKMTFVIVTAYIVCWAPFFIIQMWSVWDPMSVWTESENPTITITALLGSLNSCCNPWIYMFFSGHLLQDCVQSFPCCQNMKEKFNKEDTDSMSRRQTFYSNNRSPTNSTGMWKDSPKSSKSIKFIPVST
Property Label: inhibition at 0.1 µM (%)
Numeric answer only, unit % assumed.

# annotated cases, reported inhibition at 0.1 µM shown
Compound | Endpoint Result
COc1cccc(-c2cc(OC)c(C(=O)N3Cc4ccc(C(=O)N5CCN(CCCN(C)C)CC5)n4Cc4ccccc43)cc2Cl)c1 | 8
COc1ccccc1-c1ccc(C(=O)N2Cc3ccc(C(=O)NCCC4CCCN4C)n3Cc3ccccc32)cc1 (centres unmarked) | 24
CN1CCCN(C(=O)c2ccc3n2Cc2ccccc2N(C(=O)c2ccc(-c4cccc5ccccc45)cc2Cl)C3)CC1 | 4
COc1cccc(-c2ccc(C(=O)N3Cc4ccc(C(=O)N5CCC(N6CCCCC6)CC5)n4Cc4ccccc43)cc2OC)c1 | 20
O=C(NCCN1CCCCC1)c1ccc2n1Cc1ccccc1N(C(=O)c1ccc(-c3cccc4ccccc34)cc1Cl)C2 | 6
COc1ccccc1-c1ccc(C(=O)N2Cc3ccc(C(=O)n4ccnc4)n3Cc3ccccc32)cc1OC | 2
COc1ccccc1-c1ccc(C(=O)N2Cc3ccc(C(=O)N(C)CCCN(C)C)n3Cc3ccccc32)cc1C | 27
Cc1ccccc1-c1ccc(C(=O)N2Cc3ccc(C(=O)NCCCn4ccnc4)n3Cc3ccccc32)cc1 | 16

Request: Consider the compound shown here: COc1cc(-c2ccccc2C(F)(F)F)c(Cl)cc1C(=O)N1Cc2ccc(C(=O)O)n2Cc2ccccc21 What is its recorded inhibition at 0.1 µM?
Result: -8
